Measured values drawn from patent US20250027068 for this set.

# target-or-test-system: pooled human IgG (human IgG1,2,3 and 4)
Each entry below lists one item and its recorded Enzyme Activity Endpoint Assay: IgG value.
Answer with a number only, understood to be in ng/µL.

>>> number("PRT-512 (protein) MITSVWTKGVTPPAKFTQGEDVFHAPYVANQGWYDITKAFDGGDDLLCGAATAGNMLHWWFDQNKEEIEAYLKKHPEKQKIMFGDQELLDVRKVINTKDSQTNSALFNYFKDKAFPNLSARRLGVMPDLVLDMFINGYYLNVYKTQTTDVNRTYQTKDRRGGIFDAVFTRGDQSKLLTERHDLKNKTLKEISDLIKQELTEGKALGLSHTYANVRINHVINLWGADFDSNGNLEAIYVTDSDSNASIGMKKYFVGVNSAGKVAISAKEIKEDNIGAQVLGLFTLSTGQDIWNQTNLEHHHHHH")
31

[ask] Value lookup for Enzyme Activity Endpoint Assay: IgG; key = PRT-181 (protein) MANQEIRYSEVTPYHVTSVWTKGVTPPANFTQGEDVFHAPYVANQGWYDITKTFNGKDDLLCGAATAGNMLHWWFDQNKDQIKRYLEEHPEKQKINFNGEQMFDVKEAIDTKNHQLDSKLFEYFKEKAFPYLSTKHLGVFPDHVIDMFINGYRLSLTNHGPTPVKEGSKDPRGGIFDAVFTRGDQSKLLTSRHDLKNKNLKEISDLIKKELTEGKALGLSHTYANVRINHVINLWGADFDSNGNLKAIYVTDSDSNASIGMKKYFVGVNSAGKVAISAKEIKEDNIGAQVLGLFTLSTGQDSWNQTN
[reply] 24

[ask] State the recorded Enzyme Activity Endpoint Assay: IgG for this entry: PRT-315 (protein) MQITSVWTKGVTPLTPEQFRENNEDVIHAPYLAHQGWYDITKAFDGKDNLLCGAATAGNMLHWWFDQNKTEIEAYLSKHPEKQKIIFNNQELFDLKAAIDTKDSQTNSQLFDYFRDKAFPNLSARQLGVMPDLVLDMFINGYYLNVFKTQSTDVNRPYQDKDKRGGIFDAVFTRGDQTTLLTARHDLKNKGLNDISTIIKQELTEGRALALSHTYANVSISHVINLWGADFNAEGELEAIYVTDSDANPSIGMKKYFVGRNAHGHVAISAKKIEGENIGAQVLGLFTLSSGKDIWQKLS
[reply] 0

[ask] Would you kindly share the measured Enzyme Activity Endpoint Assay: IgG for PRT-482 (protein) MVTSVWTKGVTPPTDFIKGEDVFHAPYKAGQGWYDITKTFNGKDNLLCGAATAGNMLHWWFDQNKDQIEAYLKEHPEKQKIIFNNQELFDLKAAIDTKDDQTNSKLFEYFKEKAFPYLSTKHLGVFPDHVLDMFINGYRLSLTNHGPTPVKEGSKDKRGGIFDAVFTRGVQSKLLTSRHDFKEKTLKEISDLIKQELTEGKALALSHTYANVRINHVINLWGADFDSNGNLEAIYVTDSDTNASIGMKKYFVGVNSAGKVAISAKEIEDDNIGAQVLGLFTLSTGQDIWNQTNLEHHHHHH ?
[reply] 146

[ask] # get_value(readout='Enzyme Activity Endpoint Assay: IgG', item= PRT-171 (protein) MANQEIRYSEVTPYHVTSVWTKGVTPPTDFIKGEDVFHAPYKAGQGWYDITKTFNGKDDLLCGAATAGNMLHWWFDQNKDQIKRYLEEHPEKQKINFNGEQMFDVKEAIDTKNSQLDSKLFEYFKEKAFPYLSTKHLGVFPDHVIDMFINGYRLSLTNHGPTPVKEGSKDPRGGIFDAVFTRGDQSKLLTSRHDFKEKNLKEISDLIKKELTEGKALGLSHTYANVRINHVINLWGADFDSNGNLKAIYVTDSDSNASIGMKKYFVGVNSAGKVAISAKEIKEDNIGAQVLGLFTLSTGQDSWNQTN )
[reply] 23

[ask] State the recorded Enzyme Activity Endpoint Assay: IgG for this entry: PRT-267 (protein) MVTSVWTKGVTPPTDFIYGEDVLHAPYKAGQGWYDITKTFNGKDDLLCGAATAGNMLHWWFDQNKEQIENYLKKHPEKQKINFNGEQMFDVKEAIDTKDSQLDSKLFDYFKEKAFPNLSTKHLGVFPDHVIDMFINGYRLSLLNHGPTPVKRGSKDPRGGIFDAVFTRGDQSKLLTNRHDLKNKTLKEISDLIKQELTEGKALGISHTYANVRINHVINLWGADFDAEGNLEAIYVTDSDSNPSIGMKKYFVGVNSSGKVAISAKEIEEDNIGAQVLGLFTLSTGQDIWNQTN
[reply] 0

[ask] Query (protein): PRT-496 (protein) MVTSVWTKGVTPPTDFIKGEDVFHAPYKAGQGWYDITKTFNGKDDLLCGAATAGNMLHWWFDQNKEYIEAYLKKHPEKQKIMFGDQELLDVRKAINTKGSQKNSELFNYFRDKAFPNLSARRLGVMPDLVLDMFINGYYLNVTKTQTTDVNRTYQEKDKRGGIFDAVFTRGDQSKLLTSRHDLKNKGLKEISDLIKQELTEGKALGLSHTYANVRINHVINLWGADFDSDGNLKAIYVTDSDSNASIGMKKYFVGVNSAGKVAISAKEIKEDNIGAQVLGLFTLSTGQDIWNQTNLEHHHHHH ; field requested: Enzyme Activity Endpoint Assay: IgG
[reply] 0

[ask] Fill in the blank: the reported Enzyme Activity Endpoint Assay: IgG of PRT-183 (protein) MRNATEAYAKEVPHQVTSVWTKGVTPPANFTQGEDVFHAPYVANQGWYDITKTFNGKDDLLCGAATAGNMLHWWFDQNKDQIKRYLEEHPEKQKINFNGEQMFDVKEAIDTKNHQLDSKLFEYFKEKAFPYLSTKHLGVFPDHVIDMFINGYRLSLTNHGPTPVKEGSKDPRGGIFDAVFTRGDQSKLLTSRHDFKEKNLKEISDLIKKELTEGKALGLSHTYANVRINHVINLWGADFDSNGNLKAIYVTDSDSNASIGMKKYFVGVNSAGKVAISAKEIKEDNIGAQVLGLFTLSTGQDSWNQTN is ____.
[reply] 0
